experiment: Serum and brain level after chronic oral dosing; conditions: tau P301S, mouse, in vivo, 10 mg kg-1d-1, Compound #11 in the serum, oral 10 mg kg-1d-1, 3 months, 1 hour after last dose, Sample #1
observable: concentration at 1 h (ng/mL)
State the answer as a number, implicitly in ng/mL.

Given item Nc1ccc(N2CCOCC2)c2nonc12 [compound 11] , the value recorded as its concentration at 1 h is 184

* * *

I'd appreciate it if you could supply inhibition at 10 min, 10 µM values for the items below.
test system: CYP3A; experiment: CYP inhibition screening in microsomes; conditions: human, pH 7.4, probe testosterone
State the answer as a number, implicitly in %.

Given item Cn1c(=O)[nH]c(=O)c2c1nc(S)n2CC(O)COc1ccc(Cl)cc1 (stereo not shown) , the value recorded as its inhibition at 10 min, 10 µM is 2.4

Given item `Cc1cccc(NCc2ccc(O)c3ncccc23)c1C` , the value recorded as its inhibition at 10 min, 10 µM is 27.6

Given item `CCN(CC)c1ccc(CN2CCc3nc(C)[nH]c(=O)c3C2)c(OC)c1` , the value recorded as its inhibition at 10 min, 10 µM is -0.1

Given item COc1ccc(N2CCN(C(c3ccc(N(C)C)cc3)c3nnnn3C(C)(C)C)CC2)cc1 (stereo not shown) , the value recorded as its inhibition at 10 min, 10 µM is 0.7

The measured values listed here are drawn from paper PMC5378956.
